- System: 454973-116-R2-J3-PDC spheroids, viability, % test/control;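 also: spheroids exposed to compounds for seven days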
- Measurement description: Anticancer human tumor 454973-116-R2-J3-PDC patient-derived pancreatic carcinoma cell line growth inhibition [GQUAD]
- Experimental conditions: curve of first compound; second compound 0.316 µM; spheroids with HUVEC and MSC
pIC50: −log10 of the molar value.
Reported metric: pIC50

Observe how each entry below is paired with its result.
Dear colleague, I am looking for the recorded pIC50 of the following compound: CC(=O)O[C@H]1C(=O)[C@@]2(C)[C@H]([C@H](OC(=O)c3ccccc3)[C@]3(O)C[C@H](OC(=O)[C@H](O)[C@@H](NC(=O)c4ccccc4)c4ccccc4)C(C)=C1C3(C)C)[C@]1(OC(C)=O)CO[C@@H]1C[C@@H]2O + CN(C)c1ccc(Nc2c3ccc(NC(=O)CCN4CCCC4)cc3nc3cc(NC(=O)CCN4CCCC4)ccc23)cc1
> 7.50

Dear colleague, I am looking for the recorded pIC50 of the following compound: C=CC(=O)N1CCN(c2nc(=O)n(-c3c(C)ccnc3C(C)C)c3nc(-c4c(O)cccc4F)c(F)cc23)C(C)C1 (stereo not given) + Cc1cnc(CNC(=O)c2c(=O)c3ccc(N4CCCN(C)CC4)nc3n3c2sc2ccccc23)cn1
< 5.00

Dear colleague, I am looking for the recorded pIC50 of the following compound: C=CC(=O)N1CCN(c2nc(=O)n(-c3c(C)ccnc3C(C)C)c3nc(-c4c(O)cccc4F)c(F)cc23)C(C)C1 (stereo not given) + CN(C)c1ccc(Nc2c3ccc(NC(=O)CCN4CCCC4)cc3nc3cc(NC(=O)CCN4CCCC4)ccc23)cc1
< 5.00

Dear colleague, I am looking for the recorded pIC50 of the following compound: COc1ccc([C@@H](O)c2cc(-c3ncnc4cc(N5CCOCC5)ccc34)c(F)cc2Cl)nn1 + Cc1[nH]c2ccc(F)cc2c1-c1nc2c3cccnc3c3ncccc3c2[nH]1
< 5.00

Continuing:
Dear colleague, I am looking for the recorded pIC50 of the following compound: C#Cc1c(F)ccc2cc(O)cc(-c3ncc4c(N5CC6CCC(C5)N6)nc(OCC56CCCN5CC(F)C6)nc4c3F)c12 (stereo not given) + Cc1cnc(CNC(=O)c2c(=O)c3ccc(N4CCCN(C)CC4)nc3n3c2sc2ccccc23)cn1
> 7.50

This collection of values is drawn from PubChem BioAssay AID2060508.
